# target_desc: T1, EGFR (epidermal growth factor receptor) on A549 cells (human, UniProt P00533 25-1210)
# T1 construct: whole, on cells; Endogenous receptor of A549 cells; phosphorylation read out in cell lysates
# assay_comment: flow cytometry, A549 cells (c-MET+ EGFR++)
readout: MFI at 100 nM
Number, no unit, nothing else.

Check out these entries, answers already filled in.
{"columns": ["binder", "MFI at 100 nM"],
 "data": [
  ["oa 425 (antibody, V domains shown, one-armed (monovalent) anti-EGFR SEED molecule) VH: QVQLVQSGAEVKKPGASVKVSCKASGYTFTSHWMHWVRQAPGQGLEWIGEFNPSNGRTNYNEKFKSKATMTVDTSTNTAYMELSSLRSEDTAVYYCASRDYDYDGRYFDYWGQGTLVTVSS VL: DIQMTQSPSSLSASVGDRVTITCSASSSVTYMYWYQQKPGKAPKLLIYDTSNLASGVPSRFSGSGSGTDYTFTISSLQPEDIATYYCQQWSSHIFTFGQGTKVEIKR", 170],
  ["oa225-M (antibody, V domains shown, one-armed (monovalent) anti-EGFR SEED molecule) VH: EVQLVQSGAEVKKPGASVKVSCKASGFSLTNYGVHWMRQAPGQGLEWIGVIWSGGNTDYNTPFTSRVTITSDKSTSTAYMELSSLRSEDTAVYYCARALTYYDYEFAYWGQGTLVTVSS VL: DIQMTQSPSSLSASVGDRVTITCRASQSIGTNIHWYQQKPGKAPKLLIKYASESISGVPSRFSGSGYGTDFTLTISSLQPEDVATYYCQQNYNWPTTFGQGTKVEIK", 138],
  ["oa 225-H (antibody, V domains shown, one-armed (monovalent) anti-EGFR SEED molecule) VH: EVQLVQSGAEVKKPGASVKVSCKASGFSLTNYGVHWMRQAPGQGLEWIGVIWSGGNTDYNTPFTSRVTITSDKSTSTAYMELSSLRSEDTAVYYCARALDYYDYEFAYWGQGTLVTVSS VL: DIQMTQSPSSLSASVGDRVTITCRASQSIGTNIHWYQQKPGKAPKLLIKYASESISGVPSRFSGSGYGTDFTLTISSLQPEDVATYYCQQNNEWPNTFGQGTKVEIK", 184]
]}

Alright, here's another binder for you.
What measured MFI at 100 nM goes with oa 225-L (antibody, V domains shown, one-armed (monovalent) anti-EGFR SEED molecule) VH: EVQLVQSGAEVKKPGASVKVSCKASGFSLTNYGVHWMRQAPGQGLEWIGVIWRGGNTDYNTPFTSRVTITSDKSTSTAYMELSSLRSEDTAVYYCARALTYYDYEFAYWGQGTLVTVSS VL: DIQMTQSPSSLSASVGDRVTITCRASQSIGTNIHWYQQKPGKAPKLLIKYASESISGVPSRFSGSGYGTDFTLTISSLQPEDVATYYCQQNNNWPTTFGQGTKVEIK ? 91
